Read-out record for DNA polymerase iota (Mus musculus, UniProt Q6R3M4): IC50
Answer format: numeric, µM implied, no suffix.

* CCCCCCCC/C=C\CCCCCCCC(=O)Oc1cccc2c1C(=O)C=CC2=O | 8.7

Switching to the query record.
Observed IC50, DNA polymerase iota (Mus musculus, UniProt Q6R3M4), CCCCCCCCCCCC(=O)Oc1cccc2c1C(=O)C=CC2=O : 7.1

---

Measured IC50, listed per entry for reference.
# protocol: Inhibition of histidine-tagged human DNA polymerase gamma using poly(dA)/oligo(dT)18 (A/T = 2/1) and dTTP as the DNA template-primer and nucleotide substrate after 60 mins

* CCCCCCCCCCCC(=O)Oc1cccc2c1C(=O)C=CC2=O | 6.5 µM

Per the record, CCCCCCCC/C=C\CCCCCCCC(=O)Oc1cccc2c1C(=O)C=CC2=O has IC50 of 0.72 µM
